Test system: HIV-1NL4-3
Protocol: P4-MAGI assay
Format: cell-based
Condition set: Human immunodeficiency virus 1, 24 h, P4 cells, 24 hour incubation, β-galactosidase expression; read-out: P4-MAGI IC50
Property: IC50 (nM)
Please respond with the number in nM and leave the unit unwritten.

Example cases with answers are listed next.
[
  {
    "Molecule": "C=C(C)[C@@H]1CC[C@]2(C(=O)NCc3cccc(C(=O)NCCc4ccc(C(=O)O)s4)c3)CC[C@]3(C)C(CCC4[C@@]5(C)CC[C@H](O)C(C)(C)C5CC[C@]43C)C12 (stereo partly shown) [Example 48]",
    "IC50, nM": 29
  },
  {
    "Molecule": "C=C(C)[C@@H]1CC[C@]2(C(=O)NCc3cc(C(=O)NCc4cccc(C(=O)OC)c4)ccc3F)CC[C@]3(C)C(CCC4[C@@]5(C)CC[C@H](O)C(C)(C)C5CC[C@]43C)C12 (stereo partly shown) [Example 102]",
    "IC50, nM": 22
  }
]

[ask] Test system HIV-1NL4-3; read-out IC50; what value for C=C(C)[C@@H]1CC[C@]2(C(=O)NCCc3cccc(S(=O)(=O)NCc4ccc(C(=O)OC)cc4)c3)CC[C@]3(C)C(CCC4[C@@]5(C)CC[C@H](O)C(C)(C)C5CC[C@]43C)C12 (stereo partly shown) [Example 250] ?
[reply] 106

[ask] Quick check: IC50 on HIV-1NL4-3, item C=C(C)[C@@H]1CC[C@]2(C(=O)NCc3cccc(C(=O)NCc4ccc(OCCC(=O)O)c(C(=O)O)c4)c3)CC[C@]3(C)C(CCC4[C@@]5(C)CC[C@H](O)C(C)(C)C5CC[C@]43C)C12 (stereo partly shown) [Example 119] ?
[reply] 1100

[ask] Query the reported IC50 for HIV-1NL4-3; item: C=C(C)[C@@H]1CC[C@]2(C(=O)NCc3ccc(F)c(C(=O)NCCc4ccc(C(=O)OC)cc4)c3)CC[C@]3(C)C(CCC4[C@@]5(C)CC[C@H](O)C(C)(C)C5CC[C@]43C)C12 (stereo partly shown) [Example 104]
[reply] 350

[ask] Short answer please: IC50, HIV-1NL4-3, entry C=C(C)[C@@H]1CC[C@]2(C(=O)NCCc3ccc(OCCCCC(=O)O)cc3)CC[C@]3(C)C(CCC4[C@@]5(C)CC[C@H](O)C(C)(C)C5CC[C@]43C)C12 (stereo partly shown) [Example 112]
[reply] 317

[ask] I'm curious: which IC50 was measured for C=C(C)[C@@H]1CC[C@]2(C(=O)NCCc3cccc(C(=O)NCc4ccc(C(=O)N[C@H](Cc5ccc(O)cc5)C(=O)OC)cc4)c3)CC[C@]3(C)C(CCC4[C@@]5(C)CC[C@H](O)C(C)(C)C5CC[C@]43C)C12 (stereo partly shown) [Example 165] tested on HIV-1NL4-3?
[reply] 13

[ask] Please tell me: IC50 of C=C(C)[C@@H]1CC[C@]2(C(=O)NCCc3cccc(C(=O)NCc4ccc(N)cc4)c3)CC[C@]3(C)C(CCC4[C@@]5(C)CC[C@H](O)C(C)(C)C5CC[C@]43C)C12 (stereo partly shown) [Example 181] , system HIV-1NL4-3?
[reply] 19
